src = the NIST ThermoML archive (doi:10.1016/j.jct.2014.09.009)

- CONDITION_PARAMETERS: 298.15 K; 101.33 kPa; Liquid; Vibrating tube method
ENDPOINT_LABEL: mass density (kg/m3)

Worked set:
CCCCCCCCCCCC :: 745.2
CCO :: 785.1
CCCCn1cc[n+](C)c1.COS(=O)(=O)[O-] [1-butyl-3-methylimidazolium methyl sulfate] :: 1212.3
CCn1cc[n+](C)c1.COS(=O)(=O)[O-] [1-ethyl-3-methylimidazolium methylsulfate] :: 1277.4
CCOC(C)=O [ethyl acetate] :: 894.5

(1) COS(=O)(=O)[O-].Cn1cc[n+](C)c1 [1,3-dimethylimidazolium methylsulfate]
(2) CC(C)O
Of 1 and 2 , whose reported mass density is numerically smaller? Label of pick, please.
2
(2: 780.9 kg/m3, 1: 1327.3 kg/m3)

###

- PROTOCOL: refractive index (Na D-line) (dimensionless)
- CONDITION_PARAMETERS: 298.15 K; 101.33 kPa; Liquid; Standard Abbe refractometry
ENDPOINT_LABEL: refractive index

CC(C)O :: 1.37499
COS(=O)(=O)[O-].Cn1cc[n+](C)c1 [1,3-dimethylimidazolium methylsulfate] :: 1.48276
CCCCCCCCCCCC :: 1.41992
CCCCn1cc[n+](C)c1.COS(=O)(=O)[O-] [1-butyl-3-methylimidazolium methyl sulfate] :: 1.47948
CCO :: 1.35932
CCOC(C)=O [ethyl acetate] :: 1.36975
CCn1cc[n+](C)c1.COS(=O)(=O)[O-] [1-ethyl-3-methylimidazolium methylsulfate] :: 1.479
